Test system: PC-3
testSummary: Anticancer activity against human PC3 cells
Format: functional, cell-based
I'd appreciate it if you could supply pIC50 values for the items below.
# reply with the number alone; pIC50 is -log10 of concentration in mol/L

Which pIC50 reading was recorded for the compound `COc1cc(/C=C/C(=O)CC(=O)/C=C/c2ccc(O)c(OC)c2)ccc1O` ?
4.68

State the recorded pIC50 for this entry: `COc1cc(/C=C/C(=O)/C=C/c2ccccc2[N+](=O)[O-])ccc1O`
5.46

* * *

experimentalTarget: Tyrosine-protein kinase ABL1 (Homo sapiens, UniProt P00519, Q252H)
testSummary: Inhibition of ABL Q252H mutant (unknown origin)
measureName: IC50 (nM)
Your answer is read as nM, so omit the unit and give the number.

Report IC50 for `COc1cc(C=C(C(=O)/C=C/c2ccc(O)c(OC)c2)C(=O)/C=C/c2ccc(O)c(OC)c2)ccc1O` please.
185
